Taken from ChEMBL document CHEMBL1138323.

test: Neurotoxicity in Sprague-Dawley rat by rotarod test; type: toxicity, organism-based; settings: in vivo
OBSERVABLE: TD50 (mg/kg)
One number for each entry, in mg/kg.

[
  {
    "MOLECULE": "CCC[C@H](C(=O)NC(N)=O)C(C)C",
    "QUANTITATIVE RESULT": 118
  },
  {
    "MOLECULE": "CCC[C@@H](C(=O)NC(N)=O)C(C)C",
    "QUANTITATIVE RESULT": 124
  },
  {
    "MOLECULE": "CC(C)C(C(N)=O)C(C)C",
    "QUANTITATIVE RESULT": 72
  },
  {
    "MOLECULE": "CCCC(C(N)=O)C(C)C (racemic)",
    "QUANTITATIVE RESULT": 87
  },
  {
    "MOLECULE": "CCC[C@@H](C(N)=O)C(C)C",
    "QUANTITATIVE RESULT": 82
  },
  {
    "MOLECULE": "CCC(C)C(CC)C(=O)NC(N)=O (centres undefined) [CAPURIDE]",
    "QUANTITATIVE RESULT": 97
  },
  {
    "MOLECULE": "CCCC(C(=O)NC(N)=O)C(C)C (racemic)",
    "QUANTITATIVE RESULT": 95
  }
]

Attention now shifts to the item below.
In: Look at this molecule and give its reported TD50. CCC[C@H](C(N)=O)C(C)C
Out: 83
